Value source: PubChem BioAssay (NCI)

Task for the reader: assign each of the following molecules its reported TGI.
Tested on: COLO 205 colon
assay_notes: NCI tumour cell line growth inhibition, 48 h
Answer with a number only, understood to be in µM.

## Input Value lookup for TGI; key = `CCc1n(Cc2ccc3ccccc3n2)cc[n+]1Cc1ccc2ccccc2n1`
## Output 0.705

## Input Value lookup for TGI; key = `CCCCc1cc2c(C)cc(=O)oc2c(O)c1O`
## Output 56.5

## Input Value lookup for TGI; key = `Cc1ccc(C(C)(C)C[P+](C)(c2ccccc2)c2ccccc2)cc1`
## Output 18.7

## Input Value lookup for TGI; key = `COc1cc2c(c(OC)c1OC)-c1ccc(N)c(=O)cc1[C@@H](NC(C)=O)CC2`
## Output 0.0386

----------
Tested on: CCRF-CEM leukemia
assay_notes: NCI tumour cell line growth inhibition, 48 h; in the data active = GI50 below about 0.43 µM; inactive = the rest
Valid outcomes are listed here; reply with one: yes (1) (active), no (0) (inactive)

## Input Just curious, what result did `Oc1ccc(C(c2ccc(O)cc2)c2ccc(Cl)cn2)cc1` get here?
## Output no (0)

## Input Just curious, what result did `O=C1C(c2c[nH]c3ccccc23)=C(c2c[nH]c3ccccc23)C(=O)N1O` get here?
## Output no (0)

## Input Just curious, what result did `Cc1c(S(C)(=O)=O)c(-c2cc(F)cc(N3CCN(c4ccc(NS(=O)(=O)c5ccc(N[C@H](CCN6CCC(C(=O)OCCCP(=O)(O)O)CC6)CSc6ccccc6)c(S(=O)(=O)C(F)(F)F)c5)cc4)CC3)c2)c(-c2ccc(Cl)cc2)n1C(C)C` get here?
## Output no (0)

## Input Just curious, what result did `COc1cc(CCN)c2c(c1OC)SSSSS2` get here?
## Output yes (1)

## Input Just curious, what result did CC(C)CNCC(O)COc1ccc(C(C)(C)c2ccc(OCC(O)CNCC(C)C)cc2)cc1 (stereo not drawn) get here?
## Output no (0)

## Input Just curious, what result did `COc1ccc(-c2nc3sc(-c4ccc(Cl)cc4)cn3n2)cc1` get here?
## Output no (0)

## Input Just curious, what result did `CC1(C)CC[C@H](Nc2ncc(C(F)(F)F)c(-c3c[nH]c4c(P(C)(C)=O)c(C#N)ccc34)n2)CN1` get here?
## Output yes (1)

## Input Just curious, what result did `O=C1c2ccc([N+](=O)[O-])cc2-c2c1c1ccccc1c(=O)n2CCCNCCCNCCCn1c2c(c3ccc([N+](=O)[O-])cc3c1=O)C(=O)c1ccccc1-2` get here?
## Output no (0)

----------
System: NCI/ADR-RES ovarian
assay_notes: NCI tumour cell line growth inhibition, 48 h
reported_metric: TGI

## Input Value lookup for TGI; key = `Cc1c(S(C)(=O)=O)c(-c2cc(F)cc(N3CCN(c4ccc(NS(=O)(=O)c5ccc(N[C@H](CCN6CCC(C(=O)OCCCP(=O)(O)O)CC6)CSc6ccccc6)c(S(=O)(=O)C(F)(F)F)c5)cc4)CC3)c2)c(-c2ccc(Cl)cc2)n1C(C)C`
## Output > 100 µM

## Input Value lookup for TGI; key = `O=C1C=CC(=O)C(CNc2ccc(C(=O)OC34CC5CC(CC(C5)C3)C4)cc2)=C1`
## Output 44.1 µM

## Input Value lookup for TGI; key = `CCCCc1cc2c(C)cc(=O)oc2c(O)c1O`
## Output 56.4 µM

## Input Value lookup for TGI; key = `Cc1ccc(C(=O)N/N=C(\N=Nc2cccc(Cl)c2)c2ccc(N(CCC#N)CCC#N)cc2C)cc1`
## Output > 100 µM

## Input Value lookup for TGI; key = CSC(CC(=O)O)C(=O)O (centres undefined)
## Output > 100 µM

## Input Value lookup for TGI; key = COc1ccc(C2SCC(=O)N2NC(=O)C(O)c2ccccc2)cc1OC (centres undefined)
## Output > 100 µM

## Input Value lookup for TGI; key = `O=C1CCC2(CCO1)OCCO2`
## Output > 100 µM

## Input Value lookup for TGI; key = `O=Nc1c(-c2c(O)[nH]c3ccc([N+](=O)[O-])cc23)[nH]c2ccc(O)cc12`
## Output > 100 µM

## Input Value lookup for TGI; key = `COc1ccc(N2Cc3cnc(Nc4ccccc4)nc3N([C@@H]3CC[C@@H](O)C3)C2=O)cc1`
## Output > 25 µM
